Measured activity change, less the hit threshold values are reported for all entries that follow.
Biological target: Potassium voltage-gated channel subfamily KQT member 2 (Rattus norvegicus) (UniProt O88943)
Sequence (O88943 whole entry, looked up): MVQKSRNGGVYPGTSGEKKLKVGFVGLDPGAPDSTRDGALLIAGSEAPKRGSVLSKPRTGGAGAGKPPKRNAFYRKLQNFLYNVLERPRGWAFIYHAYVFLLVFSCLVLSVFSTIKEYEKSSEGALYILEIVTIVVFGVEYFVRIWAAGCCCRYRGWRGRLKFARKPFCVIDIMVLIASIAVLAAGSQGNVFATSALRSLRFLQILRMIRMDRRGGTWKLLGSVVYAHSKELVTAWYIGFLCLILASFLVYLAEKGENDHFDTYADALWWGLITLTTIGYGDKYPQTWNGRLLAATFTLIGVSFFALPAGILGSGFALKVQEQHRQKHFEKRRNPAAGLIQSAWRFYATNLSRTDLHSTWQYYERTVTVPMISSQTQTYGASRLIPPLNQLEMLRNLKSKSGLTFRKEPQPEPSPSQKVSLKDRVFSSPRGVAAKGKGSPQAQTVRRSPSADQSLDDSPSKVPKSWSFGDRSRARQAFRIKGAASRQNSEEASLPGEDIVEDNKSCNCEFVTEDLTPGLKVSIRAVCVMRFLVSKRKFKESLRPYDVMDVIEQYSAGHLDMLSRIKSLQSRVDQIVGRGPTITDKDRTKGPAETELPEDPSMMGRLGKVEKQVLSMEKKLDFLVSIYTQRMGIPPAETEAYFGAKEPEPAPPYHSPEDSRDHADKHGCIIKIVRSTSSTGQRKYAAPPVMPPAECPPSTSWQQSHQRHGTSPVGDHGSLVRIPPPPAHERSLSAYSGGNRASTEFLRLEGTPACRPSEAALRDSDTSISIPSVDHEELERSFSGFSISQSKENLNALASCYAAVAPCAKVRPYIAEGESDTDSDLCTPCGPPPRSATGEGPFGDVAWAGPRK
Experiment: KCNQ2 potentiation in CHO cells – cell-based, FluxOR thallium flux, counter-screen for hERG block protector project, confirmation (AID 1942);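 note: normalized value minus buffer-control mean plus three SD of buffer wells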
Conditions: FluxOR thallium flux fluorescence, at 10 µM, hits give high values
Among all 2,400 compounds or so, about 580 (24%) were called active. Not all results are given here.
metric-name: activity change, less the hit threshold (%)

molecule=COc1ccc(S(=O)(=O)n2nc(C)c(S(=O)(=O)N3CCOCC3)c2C)cc1OC metric_name="activity change, less the hit threshold" unit_descriptor=% endpoint_result=-19
molecule=COc1ccc(CCNC(=O)C(=O)Nc2ccc3c(c2)OCO3)cc1OC metric_name="activity change, less the hit threshold" unit_descriptor=% endpoint_result=-19
molecule=Cc1[nH]n(-c2cccc3ccccc23)c(=O)c1/C=N/c1sc2c(c1C#N)CCC2 metric_name="activity change, less the hit threshold" unit_descriptor=% endpoint_result=-0.6
molecule="Cc1nnc(SCC2=C(C(=O)O)N3C(=O)C(NC(=O)Cn4nc(C(F)F)cc4C)C3SC2)s1 (stereo unspecified)" metric_name="activity change, less the hit threshold" unit_descriptor=% endpoint_result=-16.5
molecule=CCOc1ccc2[nH]c(=O)c(CN(Cc3ccc(C)cc3)C(=O)N3CCCC3)cc2c1 metric_name="activity change, less the hit threshold" unit_descriptor=% endpoint_result=-12.4
molecule=CCOc1ccc2nc(N3C(=O)/C(=C/c4ccccc4)NC3=S)sc2c1 metric_name="activity change, less the hit threshold" unit_descriptor=% endpoint_result=-26.6
molecule=CC(=O)Nc1ccc2nc(NC(=O)c3ccc([N+](=O)[O-])o3)sc2c1 metric_name="activity change, less the hit threshold" unit_descriptor=% endpoint_result=-16.8
molecule="COC(=O)C(C)Sc1nnc(Cc2cc(=O)[nH]c(=O)[nH]2)n1-c1cccc(OC)c1 (stereo unspecified)" metric_name="activity change, less the hit threshold" unit_descriptor=% endpoint_result=-15.6
molecule=O=[N+]([O-])c1cccc(/C=N/N=C\c2ccccc2)c1 metric_name="activity change, less the hit threshold" unit_descriptor=% endpoint_result=-20.8
molecule="CCC1(c2ccc(Cl)cc2)NC(=S)N(c2ccccc2)N1 (stereo unspecified)" metric_name="activity change, less the hit threshold" unit_descriptor=% endpoint_result=84.8
molecule=O=C(Nc1ccc(NC(=O)C2CC2)nc1)c1cccs1 metric_name="activity change, less the hit threshold" unit_descriptor=% endpoint_result=-16.2
molecule=S=C(N/N=C/c1cccc2ccccc12)Nc1cccc(Cl)c1 metric_name="activity change, less the hit threshold" unit_descriptor=% endpoint_result=-17.2
molecule=Fc1ccc(N2CCN(c3ccc4c(C(F)(F)F)cc(C(F)(F)F)nc4n3)CC2)cc1 metric_name="activity change, less the hit threshold" unit_descriptor=% endpoint_result=-19.8
molecule=COc1ccccc1CNC(=O)CCCC(=O)n1ncc2cc(C)ccc21 metric_name="activity change, less the hit threshold" unit_descriptor=% endpoint_result=-14.9
molecule=COc1ccc2nc(-n3c(O)c(C4=c5ccccc5=NC4=O)[nH]c3=S)sc2c1 metric_name="activity change, less the hit threshold" unit_descriptor=% endpoint_result=-16.8
molecule=O=C(c1cc2c(s1)-c1ccccc1OC2)N1CCCC1 metric_name="activity change, less the hit threshold" unit_descriptor=% endpoint_result=-12.6
molecule=Cc1noc(C)c1CSc1ncnc2sc3c(c12)CCCCC3 metric_name="activity change, less the hit threshold" unit_descriptor=% endpoint_result=14.8
molecule=O=C1c2cccc3cccc(c23)C(=O)C1(O)O metric_name="activity change, less the hit threshold" unit_descriptor=% endpoint_result=-5.4
molecule="COCC(=O)N(Cc1ccco1)c1nnc(C2CCOC2)s1 (stereo unspecified)" metric_name="activity change, less the hit threshold" unit_descriptor=% endpoint_result=-22.7
molecule=O=c1[nH]c2ccc(S(=O)(=O)NCc3ccccc3)cc2[nH]1 metric_name="activity change, less the hit threshold" unit_descriptor=% endpoint_result=-14
molecule=Cc1[nH]n(-c2ccc(Cl)cc2)c(=O)c1/C=N/c1nnc(-c2ccccc2)s1 metric_name="activity change, less the hit threshold" unit_descriptor=% endpoint_result=170
molecule=Cc1ccc(NC(=O)C(=O)NNC(=O)c2cccs2)cc1 metric_name="activity change, less the hit threshold" unit_descriptor=% endpoint_result=60.8
molecule=O=C(CCc1nc(-c2ccccc2)no1)N1CCCC1 metric_name="activity change, less the hit threshold" unit_descriptor=% endpoint_result=-20.7
molecule=CCOc1ccc2nc(/N=C/c3nc(-c4ccccc4)oc3O)sc2c1 metric_name="activity change, less the hit threshold" unit_descriptor=% endpoint_result=-11.5
molecule=Cc1ccc(Nc2nc(-c3cccs3)cs2)nc1 metric_name="activity change, less the hit threshold" unit_descriptor=% endpoint_result=-16.1
molecule=CN(CC(=O)Nc1nc2ccccc2s1)S(=O)(=O)c1ccc(Cl)cc1 metric_name="activity change, less the hit threshold" unit_descriptor=% endpoint_result=-27
molecule=O=C(NCc1cccnc1)Nc1ccc2c(c1)OCO2 metric_name="activity change, less the hit threshold" unit_descriptor=% endpoint_result=-26
molecule=CN(Cc1ccccc1)C(=S)NC(=O)c1cccs1 metric_name="activity change, less the hit threshold" unit_descriptor=% endpoint_result=7.6
molecule="CCC1CCc2c(sc(NC(=O)C3CC=CCC3C(=O)O)c2C#N)C1 (stereo unspecified)" metric_name="activity change, less the hit threshold" unit_descriptor=% endpoint_result=1.4
molecule="O=C(O)CC1S/C(=N/N=C/c2ccc(-c3ccccc3[N+](=O)[O-])o2)NC1=O (stereo unspecified)" metric_name="activity change, less the hit threshold" unit_descriptor=% endpoint_result=-23.4
molecule="CCC1(c2ccc(Cl)cc2)NC(=S)N(c2ccc(C)cc2)N1 (stereo unspecified)" metric_name="activity change, less the hit threshold" unit_descriptor=% endpoint_result=83.8
molecule="Cn1ccnc1C(O)c1cccc(OCc2ccccc2)c1 (stereo unspecified)" metric_name="activity change, less the hit threshold" unit_descriptor=% endpoint_result=-25.3
molecule=O=C(CSc1nc2ccccc2o1)NCc1n[nH]c(=O)c2ccccc12 metric_name="activity change, less the hit threshold" unit_descriptor=% endpoint_result=-12.3
molecule=Cc1ccc(C(=O)NNC(=S)NC(=O)c2ccccc2)cc1 metric_name="activity change, less the hit threshold" unit_descriptor=% endpoint_result=-25.9
molecule=S=c1nc(C2CC2)[nH]c2ccccc12 metric_name="activity change, less the hit threshold" unit_descriptor=% endpoint_result=35.2
molecule=COC(=O)c1ccc(CSc2ncnc3sc(C)c(C)c23)o1 metric_name="activity change, less the hit threshold" unit_descriptor=% endpoint_result=-6.5
molecule=O=C(N/N=C/c1ccccc1[N+](=O)[O-])c1ccc(CN2CCOCC2)cc1 metric_name="activity change, less the hit threshold" unit_descriptor=% endpoint_result=-14.3
molecule=Cc1cc(=O)[nH]c(=S)n1-c1ccccc1 metric_name="activity change, less the hit threshold" unit_descriptor=% endpoint_result=-31
molecule="O=C1C2CC=CCC2C(=O)N1c1ccc(Cc2ccncc2)cc1 (stereo unspecified)" metric_name="activity change, less the hit threshold" unit_descriptor=% endpoint_result=-5.4
molecule=S=c1nc(C2CCCCC2)[nH]c2ccccc12 metric_name="activity change, less the hit threshold" unit_descriptor=% endpoint_result=4.1
molecule=CN(C)c1ccc(NC(=O)CCCc2ccccc2)cc1 metric_name="activity change, less the hit threshold" unit_descriptor=% endpoint_result=0.2
molecule=CCOc1ccc2nc(/N=C/c3c(C)[nH]n(-c4ccccc4)c3=O)sc2c1 metric_name="activity change, less the hit threshold" unit_descriptor=% endpoint_result=109
molecule=O=C(c1cccs1)N1CCN=C1SCc1ccccc1 metric_name="activity change, less the hit threshold" unit_descriptor=% endpoint_result=-22.6
molecule=Cc1cccc(-n2c(=S)[nH]c3sc4c(c3c2=O)CCc2ccccc2-4)c1 metric_name="activity change, less the hit threshold" unit_descriptor=% endpoint_result=-19.9
molecule="CCC1(c2ccccc2)NC(=S)N(c2ccc(C)cc2)N1 (stereo unspecified)" metric_name="activity change, less the hit threshold" unit_descriptor=% endpoint_result=102
molecule=CCn1c(=S)[nH]c2sc3c(c2c1=O)CCCC3 metric_name="activity change, less the hit threshold" unit_descriptor=% endpoint_result=49.6

---

Molecular target: Potassium voltage-gated channel subfamily KQT member 2 (Rattus norvegicus)
Assay: KCNQ2 potentiation in CHO cells – cell-based, FluxOR thallium flux, counter-screen for hERG block protector project, confirmation (AID 1942);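 note: normalized value minus buffer-control mean plus three SD of buffer wells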
Conditions: FluxOR thallium flux fluorescence, at 10 µM, hits give high values
Hit rate of the full screen: of about 2,400 compounds, about 580 (24%) were called active. Only a sample is shown.
# activity change, less the hit threshold per entry
metric-name: activity change, less the hit threshold (%)

compound=c1ccc(SSc2ccccn2)nc1 endpoint_result=-14
compound=COc1cccc(C(=O)NNC(=O)C(=O)Nc2ccc(OC)cc2OC)c1 endpoint_result=29.6
compound="COC(=O)C1CN(C(=O)COc2ccc(C)c(C)c2)c2ccccc2O1 (centres undefined)" endpoint_result=-18.1
compound="Cc1cccc(N2C(=O)C(O)=C(C(=O)c3cccs3)C2c2cccc(Oc3ccccc3)c2)n1 (centres undefined)" endpoint_result=-18.2
compound=S=C(NCc1ccco1)N1CCN(c2nc(-c3ccccc3)cs2)CC1 endpoint_result=-24.1
compound=O=C(Nc1ccc(Cl)c(Cl)c1)Nc1nnc(CSc2ccccc2)s1 endpoint_result=-5.4
compound="Cc1ccc(C2=NN(C(=O)CCCC(=O)O)C(c3ccc4c(c3)OCO4)C2)cc1 (centres undefined)" endpoint_result=-16.6
compound="COc1cccc(N2CC(C(=O)Nc3nnc(SCC(=O)NCC4CCCO4)s3)CC2=O)c1 (centres undefined)" endpoint_result=-12.6
compound=O=C(N1CCOCC1)N1CCC(c2nc(-c3ccc(S(=O)(=O)N4CCOCC4)cc3)no2)CC1 endpoint_result=-23.6
compound=O=C(CCN1C(=O)/C(=C\C=C\c2ccccc2)SC1=S)Nc1ccc(C(=O)O)cc1 endpoint_result=-12.3
compound=S=c1nc(Cc2ccccc2)[nH]c2ccccc12 endpoint_result=76.9
compound=S=c1nc(COc2ccccc2)[nH]c2ccccc12 endpoint_result=131
compound="C=CCn1c(SCC(=O)NCC2CCCO2)nnc1-c1ccccc1 (centres undefined)" endpoint_result=-13
compound=S=c1nc(Cc2ccc(Cl)cc2)[nH]c2ccccc12 endpoint_result=28.2
compound=O=C(Nc1c[nH]c(=O)[nH]c1=O)c1ccc2c(c1)C(=O)N(c1cccc([N+](=O)[O-])c1)C2=O endpoint_result=-9.9
compound=CC(C)c1ccc(/C=N/n2c(COc3ccccc3)n[nH]c2=S)cc1 endpoint_result=-16.5
compound=CS(=O)(=O)c1sc(C(=O)NC(=S)Nc2ccc(OC(F)(F)F)cc2)c2c1C=CCC2 endpoint_result=-11
compound=C=C(C)CSc1nc(N)cc(=O)[nH]1 endpoint_result=-12
compound=CCCCc1cc(=O)oc2c(C)c(OCC(=O)NCc3ccccn3)ccc12 endpoint_result=-13.4
compound=Cc1ccc(CNC(=O)c2ccc(CNc3c(N4CCCC4)c(=O)c3=O)cc2)cc1 endpoint_result=-23.6
compound="CC(C)Oc1ccccc1C1(c2ccccc2)NC(=O)NC1=O (centres undefined)" endpoint_result=-22.4
compound=O=C(Cn1c(=O)oc2ccccc21)Nc1ccc(F)c(F)c1 endpoint_result=-17.1
compound="CCn1c(SC(C)C(=O)O)nc2sc3c(c2c1=O)CCC3 (centres undefined)" endpoint_result=25.4
compound=O=C(NC(=S)N1CCN(c2nc(-c3ccccc3)cs2)CC1)c1cncc(Br)c1 endpoint_result=45.1
compound=Cc1ccc(C(=O)NNc2cc(N3CCCC3)nc(N3CCCC3)n2)cc1 endpoint_result=16.1
compound=O=C(CCn1c(=S)[nH]c2cc3c(cc2c1=O)OCO3)NCc1ccc(Cl)cc1 endpoint_result=-10.2
compound=Cc1cc(C)c(Cn2c3ccccc3c3cnn(CC(=O)NCc4ccccn4)c(=O)c32)c(C)c1 endpoint_result=-12.3
compound=O=c1[nH]c(SCc2cccc(Cl)c2)nc2ccccc12 endpoint_result=-14.1
compound=O=[N+]([O-])c1ccc(S(=O)(=O)Nc2ccc(S(=O)(=O)N3CCCC3)cc2)cc1 endpoint_result=-23.3
compound=Cc1ccc(C)c(OCc2cc(C(=O)N3CCNC(=O)C3)no2)c1 endpoint_result=-16
compound=C/C(=N\NC(=O)COc1ccc(C)cc1C(C)C)c1ccc(-n2ccnc2)cc1 endpoint_result=-22.3
compound=Nc1cc(N)nc(SCc2cc(=O)oc3cc4c(cc23)CCC4)n1 endpoint_result=-20.8
compound=CCn1c(SCC(N)=O)nc2sc3c(c2c1=O)CCCC3 endpoint_result=31.2
compound=O=c1c2ccc(Cl)cc2[nH]c(=S)n1CCC1=CCCCC1 endpoint_result=9.4
compound=Cc1ccc(C)c(N2CCN(S(=O)(=O)c3ccc(-c4ccc(=O)[nH]n4)o3)CC2)c1 endpoint_result=-14.6
compound=COc1ccc(Cl)cc1N(C)C(=O)CCNC(=O)Cn1cnc2ccccc2c1=O endpoint_result=-14.6
compound=c1ccc(Oc2cccc(OCCn3cncn3)c2)cc1 endpoint_result=-14.9
compound=CCCCNC(=O)c1onc(CSc2nc3ccccc3[nH]2)c1C(=O)NCCCC endpoint_result=-19
compound=S=c1[nH]nc(Cc2ccc(Br)cc2)n1/N=C/c1ccc(Cl)cc1 endpoint_result=-13.3
compound=O=C(NC(=S)Nc1nc(-c2ccccc2)cs1)c1cncc(Br)c1 endpoint_result=-12.3
compound=C=C(C)CNC(=S)NN=C1c2ccccc2-c2ccccc21 endpoint_result=-7.1
compound="O=C(C1CC1)N1N=C(c2ccccc2)CC1(O)C(F)(F)C(F)(F)F (centres undefined)" endpoint_result=-22.1
compound=O=C(O)CCCCCNc1nc(=S)[nH]c2ccccc12 endpoint_result=-0.8
compound=Cc1ccc(C(=O)Nc2nc(=O)n(C)s2)cc1 endpoint_result=-12

Source listed as PubChem BioAssay AID1942.
